- test.system: HLA-B*15:01
- assay.name: IEDB peptide-MHC binding, purified MHC/direct/fluorescence; filed as Kd, often an IC50 or EC50 that approximates it; bounds were set here for any values at or beyond the usual limits of such assays
- test.settings: source organism: Mammarenavirus lassaense
pKd: −log10 of the molar value.
property: pKd

Requested read-out: pKd. Entry: KHDEEFCDM
≤ 4.70

---

- test.system: HLA-B*83:01
- assay.name: IEDB peptide-MHC binding, purified MHC/competitive/fluorescence; filed as Kd, often an IC50 or EC50 that approximates it; bounds were set here for any values at or beyond the usual limits of such assays
- test.settings: source organism: Mycobacterium tuberculosis CDC1551
pKd: −log10 of the molar value.
property: pKd

Requested read-out: pKd. Entry: RPREATIIY
≤ 5.30
